# STUDY SYSTEM: B1R receptor of the rat (Rattus norvegicus)
# Construct: host or cells: CHO K1 cells (Chinese hamster ovary), stably transfected
# Sequence (P97583 1-337): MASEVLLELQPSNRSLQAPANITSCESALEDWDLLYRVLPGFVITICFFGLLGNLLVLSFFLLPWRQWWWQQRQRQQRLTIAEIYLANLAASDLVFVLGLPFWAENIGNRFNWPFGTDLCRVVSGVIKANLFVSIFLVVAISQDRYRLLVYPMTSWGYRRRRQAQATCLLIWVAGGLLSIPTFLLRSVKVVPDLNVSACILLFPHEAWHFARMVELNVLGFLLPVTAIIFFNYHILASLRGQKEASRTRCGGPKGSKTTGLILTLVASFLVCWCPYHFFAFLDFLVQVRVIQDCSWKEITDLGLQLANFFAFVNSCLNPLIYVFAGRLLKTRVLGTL
# METHOD NOTES: Functional study on the bradykinin receptor 1 (B1R), FLIPR Ca2+ assay, rB1R cells
# Type: cell-based
# CONDITION DETAILS: CHO-K1, test substance 10 μM, agonist Des-Arg9-bradykinin 100 nM, % inhibition compared with the maximum achievable inhibition, read-out: B1R Antagonism, rat [10 μM] % Inhibition
compounds and their reported inhibition at 10 µM
Note to self: number, then unit, no commentary.

# count of solved cases: 3
# COMPOUND, inhibition at 10 µM
data = [
    ("COc1cc(C)c(S(=O)(=O)N2CCCC2COCC(=O)N2CCCN(C)CC2)c(C)c1 (stereo not drawn) [Example 467]", "101%"),
    ("COc1cc(C)c(S(=O)(=O)N2CCCCC2COCC(=O)N2CCC(c3nc4cc(C)ccc4[nH]3)CC2)c(C)c1 (stereo not drawn) [Example 397]", "101%"),
    ("COc1cc(OC)cc(N2CCN(C(=O)COCC3CCCCN3S(=O)(=O)c3c(C)cc(OC)cc3C)CC2)c1 (stereo not drawn) [Example 340]", "101%"),
]

Reported inhibition at 10 µM for B1R receptor of the rat (Rattus norvegicus), given Cc1cc(C)c(S(=O)(=O)N2CCCCC2COCC(=O)N2CCC(N3CCCCC3)CC2)c(C)c1 (stereo not drawn) [Example 225] ?
84.1%

Do the same for COc1cc(C)c(S(=O)(=O)N2CCCCC2COCC(=O)N2CCC(c3cccnc3)C2)c(C)c1 (stereo not drawn) [Example 237] please
99.5%

Do the same for COc1cc(C)c(S(=O)(=O)N2CCCCC2COCC(=O)N2CCCN(C)CC2)c(C)c1 (stereo not drawn) [Example 375] please
99.8%

Do the same for COc1cc(C)c(S(=O)(=O)N2CCCCC2COCC(=O)N2CCN(C3CCC(C)CC3)CC2)c(C)c1 (stereo not drawn) [Example 105] please
100%

Do the same for COc1cc(C)c(S(=O)(=O)N2CCCCC2COCC(=O)NC(CN2CCN(C)CC2)c2ccccc2)c(C)c1 (stereo not drawn) [Example 263] please
97.8%

Do the same for O=C(COCC1CCCN1S(=O)(=O)c1c(Cl)cccc1Cl)N1CCCCC1Cc1ccncc1 (stereo not drawn) [Example 453] please
74.4%

---

# STUDY SYSTEM: human B1R receptor (Homo sapiens, UniProt P46663)
# Construct: host or cells: CHO K1 cells (Chinese hamster ovary), stably transfected
# Sequence (P46663 1-353): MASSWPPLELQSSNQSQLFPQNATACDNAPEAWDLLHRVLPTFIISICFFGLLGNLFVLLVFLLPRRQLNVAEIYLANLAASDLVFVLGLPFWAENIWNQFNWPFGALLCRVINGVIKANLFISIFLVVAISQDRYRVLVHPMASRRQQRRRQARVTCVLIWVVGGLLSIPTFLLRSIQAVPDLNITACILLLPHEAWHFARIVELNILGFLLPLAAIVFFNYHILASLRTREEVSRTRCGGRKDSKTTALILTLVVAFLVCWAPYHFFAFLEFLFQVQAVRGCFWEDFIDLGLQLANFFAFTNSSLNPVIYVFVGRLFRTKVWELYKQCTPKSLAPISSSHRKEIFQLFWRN
# METHOD NOTES: Functional study on the bradykinin receptor 1 (B1R), FLIPR Ca2+ assay, hB1R cells
# Assay type: cell-based
# CONDITION DETAILS: CHO-K1, test substance 10 μM, agonist Lys-Des-Arg9-bradykinin 0.5 nM, % inhibition compared with the maximum achievable inhibition, read-out: B1R Antagonism, human [10 μM] % Inhibition
Structures can show the parent of a compound that is named as a salt.
compounds and their reported inhibition at 10 µM
State the answer as a number, implicitly in %.

# count of solved cases: 5
# COMPOUND, STUDY SYSTEM, RESULT VALUE
records = [
    ("COc1cc(C)c(S(=O)(=O)N2CCCCC2COCC(=O)N2CCN(CC3CCN(C)CC3)CC2)c(C)c1 (stereo not shown) [Example 106, dihydrochloride]", "human B1R receptor (Homo sapiens, UniProt P46663)", 103),
    ("O=C(COCC1CCCCN1S(=O)(=O)c1c(Cl)cccc1Cl)N1CCN(c2ncc(Cl)cc2Cl)CC1 (stereo not shown)", "human B1R receptor (Homo sapiens, UniProt P46663)", 52.7),
    ("O=C(COCC1CCCCN1S(=O)(=O)c1c(Cl)cccc1Cl)N1CCN(c2ccccn2)CC1 (stereo not shown)", "human B1R receptor (Homo sapiens, UniProt P46663)", 82.7),
    ("COCCN1CCN(C(=O)COCC2CCCCN2S(=O)(=O)c2ccc(Cl)c(Cl)c2)CC1 (stereo not shown)", "human B1R receptor (Homo sapiens, UniProt P46663)", 68.2),
    ("COc1cc(C)c(S(=O)(=O)N2CCCC2COCC(=O)N(Cc2ccccc2)c2cccc(C)n2)c(C)c1 (stereo not shown)", "human B1R receptor (Homo sapiens, UniProt P46663)", 56.6),
]

Record request: inhibition at 10 µM value, item O=C(COCC1CCCN1S(=O)(=O)c1c(Cl)cccc1Cl)N1CCC(N2CCCCC2)CC1 (stereo not shown)
104

Do the same for COc1ccc(S(=O)(=O)N2CCCCC2COCC(=O)N2CCN(CCOc3ccccc3)CC2)cc1 (stereo not shown) please
-3.53
